- test_name: RP, Waters ACQUITY UPLC BEH C18, 38 °C, 0.24 mL/min; A: water + 0.1% formic acid, pH 3; B: acetonitrile + 0.1% formic acid, pH 3; gradient (min/%B) 0/0 0.25/0 0.4/9 0.8/17 1.9/100 2.1/100 2.11/0 3/0
- assay_context: stereoisomer not certain
Counter-ions that a name gives are not always drawn.
measured_quantity: LC retention time (min)

Solved entries:
Nc1ccc(O)cc1 [4-Aminophenol hydrochloride] ... 0.2
COC1C(O)C(O)C(O)C(O)C1O (stereo not drawn) ... 0.17
C[n+]1cccc(C(N)=O)c1 [1-Methylnicotinamide chloride] ... 0.18
O=c1cc(-c2ccc(O)cc2)oc2c(C3OC(CO)C(O)C(O)C3O)c(O)cc(O)c12 (stereo not drawn) ... 1.39
CC(CO)CCNc1ncnc2nc[nH]c12 (racemic) [DL-Dihydrozeatin] ... 1.11
OC[C@@H](O)[C@H](O)CO (racemic) ... 0.17
CC(C)CC(O)C(=O)O (stereo not drawn) [2-Hydroxyisocaproic acid] ... 1.34
NCCS(=O)O ... 0.16
CN(C)C(=N)N=C(N)N [1,1-Dimethylbiguanide hydrochloride] ... 0.21
OCC1OC(OC2C(CO)OC(O)C(O)C2O)C(O)C(O)C1O [D-(+)- Maltose monohydrate] ... 0.17

(A) OCC1OC(OCC2OC(O)(CO)C(O)C2O)C(O)C(O)C1O (stereo not drawn) [Palatinose Monohydrate]
(B) O=C(O)/C=C/c1ccc(O)cc1
Problem: Of A and B , which one carries the higher reported LC retention time? Return value: the label identifying the chosen record.
Result: B
